# target: Cyclin-dependent kinase 2 (Homo sapiens);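 further: mean inhibition of CDK2 in complex with cyclin E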
# condition details: at 0.1 µM
quantity: inhibition (%)

sample smiles	target	quantity	unit descriptor	measured number
COC(=O)Nc1nc2ccc(S(=O)(=O)c3ccc(NC(=O)Nc4cc(C(F)(F)F)ccc4F)cc3)cc2[nH]1	Cyclin-dependent kinase 2 (Homo sapiens)	inhibition	%	3.44
NS(=O)(=O)c1ccc(N/N=C2\C(=O)Nc3ccc4ncccc4c32)cc1	Cyclin-dependent kinase 2 (Homo sapiens)	inhibition	%	83.1
COc1cc2ncn(-c3cc(OCc4ccccc4C(F)(F)F)c(C(=O)N(C)C)s3)c2cc1OC	Cyclin-dependent kinase 2 (Homo sapiens)	inhibition	%	-0.22
Cc1cccc(Nc2ncc(-c3ccccc3)o2)c1	Cyclin-dependent kinase 2 (Homo sapiens)	inhibition	%	1.61
CCn1c(-c2nonc2N)nc2c(C#CC(C)(C)O)nc(OC[C@H](N)c3ccccc3)cc21	Cyclin-dependent kinase 2 (Homo sapiens)	inhibition	%	0.77
Fc1ccc(-c2nn3ccccc3c2-c2ccncc2)cc1	Cyclin-dependent kinase 2 (Homo sapiens)	inhibition	%	1.19
COc1ccc2[nH]c3c4[nH]c5ccc(OC)cc5c4c4c(c3c2c1)C(=O)NC4=O	Cyclin-dependent kinase 2 (Homo sapiens)	inhibition	%	3.64
COC(=O)Nc1nc2ccc(Oc3ccc(NC(=O)Nc4cccc(Cl)c4)cc3)cc2[nH]1	Cyclin-dependent kinase 2 (Homo sapiens)	inhibition	%	1.4
CCOc1ccc2c(-c3ccnc(Nc4cccc(C(F)(F)F)c4)n3)cnn2n1	Cyclin-dependent kinase 2 (Homo sapiens)	inhibition	%	3.35
CC(=O)Nc1cccc(C#Cc2cncnc2Nc2ccc(OCc3cccc(F)c3)c(Cl)c2)c1	Cyclin-dependent kinase 2 (Homo sapiens)	inhibition	%	2
CN1CCC(n2cnc(-c3ccc(F)cc3)c2-c2ccnc(N)n2)CC1	Cyclin-dependent kinase 2 (Homo sapiens)	inhibition	%	1.45
